Target: SIRT1 (Homo sapiens, UniProt Q96EB6)
Sequence (Q96EB6 1-747): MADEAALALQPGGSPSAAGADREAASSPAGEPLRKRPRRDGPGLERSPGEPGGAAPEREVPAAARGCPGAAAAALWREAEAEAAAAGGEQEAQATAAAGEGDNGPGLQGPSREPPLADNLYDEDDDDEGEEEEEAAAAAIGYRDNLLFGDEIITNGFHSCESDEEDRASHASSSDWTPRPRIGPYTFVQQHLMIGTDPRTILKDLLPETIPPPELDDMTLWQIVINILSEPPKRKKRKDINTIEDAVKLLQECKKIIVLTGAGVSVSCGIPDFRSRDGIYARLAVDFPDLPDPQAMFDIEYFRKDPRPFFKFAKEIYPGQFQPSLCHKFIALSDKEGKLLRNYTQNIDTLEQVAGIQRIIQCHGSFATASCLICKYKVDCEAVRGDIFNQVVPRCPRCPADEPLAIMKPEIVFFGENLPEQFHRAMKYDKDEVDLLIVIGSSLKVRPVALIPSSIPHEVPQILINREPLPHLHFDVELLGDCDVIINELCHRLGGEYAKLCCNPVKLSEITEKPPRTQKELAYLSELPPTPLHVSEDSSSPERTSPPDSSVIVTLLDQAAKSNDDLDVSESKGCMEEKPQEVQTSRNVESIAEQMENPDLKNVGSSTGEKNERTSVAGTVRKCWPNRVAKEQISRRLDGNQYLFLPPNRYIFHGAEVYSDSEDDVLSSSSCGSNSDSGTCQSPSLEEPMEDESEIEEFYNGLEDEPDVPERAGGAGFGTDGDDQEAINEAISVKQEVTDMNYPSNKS
Assay: Trp mass spectrometry assay of SIRT1 activation
Format: biochemical
Details: Trp mass spectrometry assay; EC1.5 = concentration of test compound that results in 150% activation of SIRT1
value-type: Tryp AVG EC1.5 (μM)

Sample records with Tryp AVG EC1.5 (μM):
In [3]: df
Out[3]:
                         chemical_structure          readout_value
0  O=C(Nc1ccncn1)N1c2nc(-c3cccc(N4CCOCC4)c3)ccc2N2CCC[C@H]1C2  B (B (EC1.5 1-25 μM))
1  O=C(Nc1cnccn1)N1c2nc(-c3cncc(Cl)c3)ccc2N2CCC1CC2  B (B (EC1.5 1-25 μM))
2  COc1cnc(NC(=O)N2c3nc(-c4ccnc(C)c4)ccc3N3CC[C@H]2C3)cn1     A (A (EC1.5<1 μM))
3  Cc1cc(-c2ccc3c(n2)N(C(=O)Nc2ccc4nn(C)cc4c2)[C@H]2CCN3C2)ccn1     A (A (EC1.5<1 μM))
4  Cc1nn(C)cc1-c1ccc2c(n1)N(C(=O)Nc1cccnc1)[C@H]1CCN2C1  B (B (EC1.5 1-25 μM))

The compound listed as O=C(Nc1cc(-c2cnco2)ccn1)N1c2nc(-c3cccc(C(F)(F)F)c3)ccc2N2CCC1CC2 shows Tryp AVG EC1.5 (μM) equal to A (A (EC1.5<1 μM))

Lab note: O=C(Nc1cccnn1)N1c2nc(-c3cccc(N4CCOCC4)c3)ccc2N2CCC[C@H]1C2 gave Tryp AVG EC1.5 (μM) of B (B (EC1.5 1-25 μM))

Looking up CC(=O)N1CCCN(c2ccc3c(n2)N(C(=O)Nc2ccncn2)[C@H]2CCCN3C2)CC1 , I found its Tryp AVG EC1.5 (μM) recorded as C (C (EC1.5>25 μM))

Reported Tryp AVG EC1.5 (μM) for Cc1nc(NC(=O)N2c3nc(-c4cncc(Cl)c4)ccc3N3CCC2CC3)sc1C was B (B (EC1.5 1-25 μM))

Reported Tryp AVG EC1.5 (μM) ( O=C(Nc1cccc(-c2cnco2)c1)N1c2nc(-c3cncc(Cl)c3)ccc2N2CCC1CC2 ) = A (A (EC1.5<1 μM))

Reported Tryp AVG EC1.5 (μM) ( Cc1cncc(-c2ccc3c(n2)N(C(=O)Nc2cccnn2)[C@H]2CCCN3C2)c1 ) = A (A (EC1.5<1 μM))

Entry CC(C)(C)OC(=O)N1CCc2cc(NC(=O)N3c4nc(-c5cccc(C(F)(F)F)c5)ccc4N4CC[C@H]3C4)ccc2C1 ; Tryp AVG EC1.5 (μM) = A (A (EC1.5<1 μM))

Documented Tryp AVG EC1.5 (μM) of O=C(Nc1cncc(F)c1)N1c2nc(-c3ccnc(N4CC[C@H](F)C4)c3)ccc2N2CC[C@H]1C2 : A (A (EC1.5<1 μM))

Value of measured Tryp AVG EC1.5 (μM) for the entry N#Cc1cc(-c2ccc3c(n2)N(C(=O)Nc2cnccn2)[C@H]2CCN3C2)ccc1F : A (A (EC1.5<1 μM))

Memo: Cc1cncc(-c2ccc3c(n2)N(C(=O)Nc2cncc(F)c2)[C@H]2CCCN3C2)c1 , reported Tryp AVG EC1.5 (μM): A (A (EC1.5<1 μM))

Lab note: measured Tryp AVG EC1.5 (μM) of O=C(O)c1cc(NC(=S)NCc2ccc(NC(=O)N3c4nc(-c5cccc(C(F)(F)F)c5)ccc4N4CCC[C@H]3C4)cc2)ccc1-c1c2ccc(=O)cc-2oc2cc(O)ccc12 was A (A (EC1.5<1 μM))

Record summary for O=C(NCc1ccccc1)N1c2nc(-c3cccc(C(F)(F)F)c3)ccc2N2CC[C@H]1C2 : reported Tryp AVG EC1.5 (μM) = B (B (EC1.5 1-25 μM))

Record Cc1cc(NC(=O)N2c3nc(-c4cccc(C(F)(F)F)c4)ccc3N3CC[C@H]2C3)cc(Br)n1 , field Tryp AVG EC1.5 (μM): A (A (EC1.5<1 μM))

* * *

Biological target: UniProtKB Q96EB6
Test: Trp mass spectrometry assay of SIRT1 activation
Assay type: biochemical
Details: concentration giving 150% activation of SIRT1; Trp peptide substrate
value-type: Tryp AVG EC1.5 (μM)

// worked examples, Tryp AVG EC1.5 (μM) included
>>> df
                         chemical_structure           value_type          readout_value
0  O=C(Nc1cncc(F)c1)N1c2nc(-c3cccc(C(F)(F)F)c3)ccc2N2C[C@@H](O)[C@H]1C2  Tryp AVG EC1.5 (μM)     A (A (EC1.5<1 μM))
1  O=C(Nc1ccc(N2CCCCC2)cc1)N1c2nc(-c3cccc(C(F)(F)F)c3)ccc2N2CC[C@H]1C2  Tryp AVG EC1.5 (μM)  B (B (EC1.5 1-25 μM))
2  O=C(Nc1cccc(-c2cnco2)c1)N1c2nc(-c3cncc(F)c3)ccc2N2CC[C@H]1C2  Tryp AVG EC1.5 (μM)     A (A (EC1.5<1 μM))
3  O=C(Nc1cc(-c2cnco2)cc(-c2cnco2)c1)N1c2nc(-c3cccc(C(F)(F)F)c3)ccc2N2CC[C@H]1C2  Tryp AVG EC1.5 (μM)     A (A (EC1.5<1 μM))
4  O=C1CN2C[C@H]1N(C(=O)Nc1cccc(-c3cnco3)c1)c1nc(-c3cccc(C(F)(F)F)c3)ccc12  Tryp AVG EC1.5 (μM)     A (A (EC1.5<1 μM))

We now examine a further compound.
# Tryp AVG EC1.5 (μM) (compound: O=C(NCCCc1ccccn1)N1c2nc(-c3cccc(C(F)(F)F)c3)ccc2N2CC[C@H]1C2 ) is B (B (EC1.5 1-25 μM))

* * *

Target: SIRT1 (Homo sapiens)
Test: Trp mass spectrometry assay of SIRT1 activation
Format: biochemical
Details: concentration giving 150% activation of SIRT1; Trp peptide substrate
value-type: Tryp AVG EC1.5 (μM)

>>> print(df.to_string())
                         chemical_structure          readout_value
0  O=C(Nc1ccccn1)N1c2nc(-c3cccc(Cl)c3)ccc2N2C[C@@H](O)[C@H]1C2  B (B (EC1.5 1-25 μM))
1  N=C(N)NCc1ncc(-c2cccc(NC(=O)N3c4nc(-c5cccc(C(F)(F)F)c5)ccc4N4CC[C@H]3C4)c2)o1     A (A (EC1.5<1 μM))
2  Cc1cc(-c2ccc3c(n2)N(C(=O)Nc2cncc(-c4cnco4)c2)[C@H]2CCN3C2)ccn1     A (A (EC1.5<1 μM))
3  O=C(Nc1cccc(-c2cnco2)c1)N1c2cc(-c3cccc(C(F)(F)F)c3)ccc2N2CC[C@H]1C2  B (B (EC1.5 1-25 μM))

Now look at this one.
GET /values?item= O=C(Nc1cccc(-c2ccoc2)n1)N1c2nc(-c3cccc(C(F)(F)F)c3)ccc2N2CC[C@H]1C2 &system= SIRT1 (Homo sapiens) returns Tryp AVG EC1.5 (μM): A (A (EC1.5<1 μM))

* * *

Biological target: SIRT1 (Homo sapiens)
Sequence (Q96EB6 1-747): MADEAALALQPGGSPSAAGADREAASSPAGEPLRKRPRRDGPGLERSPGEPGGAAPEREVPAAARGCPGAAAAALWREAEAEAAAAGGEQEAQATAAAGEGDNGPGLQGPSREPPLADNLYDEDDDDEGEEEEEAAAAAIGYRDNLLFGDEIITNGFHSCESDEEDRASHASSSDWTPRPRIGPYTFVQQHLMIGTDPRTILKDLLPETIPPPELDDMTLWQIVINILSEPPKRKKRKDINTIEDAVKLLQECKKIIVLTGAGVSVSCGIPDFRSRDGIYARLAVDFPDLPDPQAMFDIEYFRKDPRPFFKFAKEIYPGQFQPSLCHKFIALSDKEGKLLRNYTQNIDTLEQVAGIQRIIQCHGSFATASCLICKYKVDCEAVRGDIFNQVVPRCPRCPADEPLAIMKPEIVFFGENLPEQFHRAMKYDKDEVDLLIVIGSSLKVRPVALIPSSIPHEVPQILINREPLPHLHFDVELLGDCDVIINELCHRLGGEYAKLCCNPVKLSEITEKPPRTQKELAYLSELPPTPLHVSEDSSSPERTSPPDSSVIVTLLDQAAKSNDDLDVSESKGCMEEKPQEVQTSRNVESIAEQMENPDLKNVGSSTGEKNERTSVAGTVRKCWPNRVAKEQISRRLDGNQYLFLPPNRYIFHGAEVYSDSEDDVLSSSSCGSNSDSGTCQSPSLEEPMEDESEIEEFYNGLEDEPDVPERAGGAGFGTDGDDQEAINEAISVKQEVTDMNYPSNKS
Experiment: Trp mass spectrometry assay of SIRT1 activation
Type: biochemical
Details: Trp mass spectrometry assay; concentration of test compound giving 150% activation of SIRT1
value-type: Tryp AVG EC1.5 (μM)

Worked cases, answers included:
>>> print(df.to_string())
                                   molecule   experimental_target           value_type          readout_value
0  O=C(Nc1ccncc1F)N1c2nc(-c3cccc(CC(O)CO)c3)ccc2N2CC[C@H]1C2 (some centres unmarked) [Example 357]  SIRT1 (Homo sapiens)  Tryp AVG EC1.5 (μM)  B (B (EC1.5 1-25 μM))
1  O=C(Nc1ccccn1)N1c2nc(-c3cncc(Cl)c3)ccc2N2CCC[C@H]1C2 [Example 406]  SIRT1 (Homo sapiens)  Tryp AVG EC1.5 (μM)     A (A (EC1.5<1 μM))
2  COc1cc(NC(=O)N2c3nc(-c4ccnc(N5CCC(F)(F)C5)c4)ccc3N3CC[C@H]2C3)ncn1 [Example 390]  SIRT1 (Homo sapiens)  Tryp AVG EC1.5 (μM)  B (B (EC1.5 1-25 μM))
3  Cc1n[nH]cc1-c1ccc2c(n1)N(C(=O)Nc1ccccn1)[C@H]1CCN2C1 [Example 370]  SIRT1 (Homo sapiens)  Tryp AVG EC1.5 (μM)  B (B (EC1.5 1-25 μM))
4  O=C(Nc1ccncc1)N1c2nc(N3CCCC(C(F)(F)F)C3)ccc2N2CCC[C@H]1C2 (some centres unmarked) [Example 360]  SIRT1 (Homo sapiens)  Tryp AVG EC1.5 (μM)     A (A (EC1.5<1 μM))
5  O=C(Nc1cc(O)ncn1)N1c2nc(N3CCCC(C(F)(F)F)C3)ccc2N2CCC[C@H]1C2 (some centres unmarked) [Example 361]  SIRT1 (Homo sapiens)  Tryp AVG EC1.5 (μM)     A (A (EC1.5<1 μM))
6  CS(=O)(=O)c1cncc(-c2ccc3c(n2)N(C(=O)Nc2ccncn2)[C@H]2CCCN3C2)c1 [Example 379]  SIRT1 (Homo sapiens)  Tryp AVG EC1.5 (μM)     A (A (EC1.5<1 μM))
7  COc1cc(NC(=O)N2c3nc(-c4cncc(F)c4)ccc3N3CCC[C@H]2C3)ncn1 [Example 404]  SIRT1 (Homo sapiens)  Tryp AVG EC1.5 (μM)     A (A (EC1.5<1 μM))

Switching to the query record.
For reference, reported Tryp AVG EC1.5 (μM) for O=C(Nc1ccncn1)N1c2nc(-c3cncc(C(F)(F)F)c3)ccc2N2CCC[C@H]1C2 [Example 393] stands at A (A (EC1.5<1 μM))
